Experiment: Paclitaxel levels in mouse plasma
Type: in vivo
Details: female, intravenous, 50 mg/kg i.v., Colon 26-bearing CDF1 mice, 0.083 hours
Procedure: Each drug was prepared according to the same method as in Test Example 2 (in vivo antitumor effect on Colon 26). […] The organic layer was recovered, evaporated into dryness, dissolved in 0.4 mL of dissolving liquid for HPLC, and measured for its paclitaxel concentration by HPLC. […] The organic layer was concentrated and dissolved in 0.4 mL of dissolving liquid for HPLC and measured for its paclitaxel concentration by HPLC.
outcome measure: concentration at 0.083 h (µg/mL)
I only need the number, in µg/mL, no unit after it.

Query: Name the reported concentration at 0.083 h value associated with the molecule CC(=O)O[C@H]1C(=O)[C@@]2(C)[C@H]([C@H](OC(=O)c3ccccc3)[C@]3(O)C[C@H](OC(=O)[C@H](O)[C@@H](NC(=O)c4ccccc4)c4ccccc4)C(C)=C1C3(C)C)[C@]1(OC(C)=O)CO[C@@H]1C[C@@H]2O [Paclitaxel alone, paclitaxel]
Response: 59.3

###

experiment: Paclitaxel levels in mouse plasma; type: in vivo; conditions: female, intravenous, 50 mg/kg i.v., Colon 26-bearing CDF1 mice, 0.5 hours
outcome measure: concentration at 0.5 h
Hey, just the number and the unit after it is fine.

Query: Name the reported concentration at 0.5 h value associated with the compound CC(=O)O[C@H]1C(=O)[C@@]2(C)[C@H]([C@H](OC(=O)c3ccccc3)[C@]3(O)C[C@H](OC(=O)[C@H](O)[C@@H](NC(=O)c4ccccc4)c4ccccc4)C(C)=C1C3(C)C)[C@]1(OC(C)=O)CO[C@@H]1C[C@@H]2O [Paclitaxel alone, paclitaxel]
Response: 31900 ng/mL

###

assay: Paclitaxel levels in mouse tumor; format: in vivo; conditions: female, CDF1, mouse, tumor (Colon 26), intravenous; 50 mg/kg i.v., Colon 26 tumor, 24 hours
outcome measure: concentration at 24 h (µg/mL)
I only need the number, in µg/mL, no unit after it.

Query: Name the reported concentration at 24 h value associated with the compound CC(=O)O[C@H]1C(=O)[C@@]2(C)[C@H]([C@H](OC(=O)c3ccccc3)[C@]3(O)C[C@H](OC(=O)[C@H](O)[C@@H](NC(=O)c4ccccc4)c4ccccc4)C(C)=C1C3(C)C)[C@]1(OC(C)=O)CO[C@@H]1C[C@@H]2O
Response: 1.25

###

assay: Paclitaxel levels in mouse tumor; assay type: in vivo; settings: female, CDF1, mouse, tumor (Colon 26), intravenous; 50 mg/kg i.v., Colon 26 tumor, 0.083 hours
outcome measure: concentration at 0.083 h (µg/mL)
I only need the number, in µg/mL, no unit after it.

Query: Name the reported concentration at 0.083 h value associated with the compound CC(=O)O[C@H]1C(=O)[C@@]2(C)[C@H]([C@H](OC(=O)c3ccccc3)[C@]3(O)C[C@H](OC(=O)[C@H](O)[C@@H](NC(=O)c4ccccc4)c4ccccc4)C(C)=C1C3(C)C)[C@]1(OC(C)=O)CO[C@@H]1C[C@@H]2O [Paclitaxel alone, paclitaxel]
Response: 7.37

###

test: Paclitaxel levels in mouse plasma; type: in vivo; conditions: female, intravenous, 50 mg/kg i.v., Colon 26-bearing CDF1 mice, 2 hours
outcome measure: concentration at 2 h (ng/mL)
I only need the number, in ng/mL, no unit after it.

Query: Name the reported concentration at 2 h value associated with the compound CC(=O)O[C@H]1C(=O)[C@@]2(C)[C@H]([C@H](OC(=O)c3ccccc3)[C@]3(O)C[C@H](OC(=O)[C@H](O)[C@@H](NC(=O)c4ccccc4)c4ccccc4)C(C)=C1C3(C)C)[C@]1(OC(C)=O)CO[C@@H]1C[C@@H]2O
Response: 14800

###

test: Paclitaxel levels in mouse tumor; format: in vivo; conditions: female, CDF1, mouse, tumor (Colon 26), intravenous; 50 mg/kg i.v., Colon 26 tumor, 6 hours
outcome measure: concentration at 6 h (ng/mL)
I only need the number, in ng/mL, no unit after it.

Query: Name the reported concentration at 6 h value associated with the compound CC(=O)O[C@H]1C(=O)[C@@]2(C)[C@H]([C@H](OC(=O)c3ccccc3)[C@]3(O)C[C@H](OC(=O)[C@H](O)[C@@H](NC(=O)c4ccccc4)c4ccccc4)C(C)=C1C3(C)C)[C@]1(OC(C)=O)CO[C@@H]1C[C@@H]2O
Response: 5790

###

Assay: Paclitaxel levels in mouse tumor
Assay type: in vivo
Settings: female, CDF1, mouse, tumor (Colon 26), intravenous; 50 mg/kg i.v., Colon 26 tumor, 0.5 hours
Protocol: Each drug was prepared according to the same method as in Test Example 2 (in vivo antitumor effect on Colon 26). […] The organic layer was recovered, evaporated into dryness, dissolved in 0.4 mL of dissolving liquid for HPLC, and measured for its paclitaxel concentration by HPLC. […] The organic layer was concentrated and dissolved in 0.4 mL of dissolving liquid for HPLC and measured for its paclitaxel concentration by HPLC.
outcome measure: concentration at 0.5 h (ng/mL)
I only need the number, in ng/mL, no unit after it.

Query: Name the reported concentration at 0.5 h value associated with the compound CC(=O)O[C@H]1C(=O)[C@@]2(C)[C@H]([C@H](OC(=O)c3ccccc3)[C@]3(O)C[C@H](OC(=O)[C@H](O)[C@@H](NC(=O)c4ccccc4)c4ccccc4)C(C)=C1C3(C)C)[C@]1(OC(C)=O)CO[C@@H]1C[C@@H]2O
Response: 10000
